Target: GST-tagged truncated LRRK2 (Homo sapiens, UniProt Q5S007)
Construct: GST-tagged truncated LRRK2 from Invitrogen (Cat # PV4874); GST
Sequence (Q5S007 970-2527 limits assumed): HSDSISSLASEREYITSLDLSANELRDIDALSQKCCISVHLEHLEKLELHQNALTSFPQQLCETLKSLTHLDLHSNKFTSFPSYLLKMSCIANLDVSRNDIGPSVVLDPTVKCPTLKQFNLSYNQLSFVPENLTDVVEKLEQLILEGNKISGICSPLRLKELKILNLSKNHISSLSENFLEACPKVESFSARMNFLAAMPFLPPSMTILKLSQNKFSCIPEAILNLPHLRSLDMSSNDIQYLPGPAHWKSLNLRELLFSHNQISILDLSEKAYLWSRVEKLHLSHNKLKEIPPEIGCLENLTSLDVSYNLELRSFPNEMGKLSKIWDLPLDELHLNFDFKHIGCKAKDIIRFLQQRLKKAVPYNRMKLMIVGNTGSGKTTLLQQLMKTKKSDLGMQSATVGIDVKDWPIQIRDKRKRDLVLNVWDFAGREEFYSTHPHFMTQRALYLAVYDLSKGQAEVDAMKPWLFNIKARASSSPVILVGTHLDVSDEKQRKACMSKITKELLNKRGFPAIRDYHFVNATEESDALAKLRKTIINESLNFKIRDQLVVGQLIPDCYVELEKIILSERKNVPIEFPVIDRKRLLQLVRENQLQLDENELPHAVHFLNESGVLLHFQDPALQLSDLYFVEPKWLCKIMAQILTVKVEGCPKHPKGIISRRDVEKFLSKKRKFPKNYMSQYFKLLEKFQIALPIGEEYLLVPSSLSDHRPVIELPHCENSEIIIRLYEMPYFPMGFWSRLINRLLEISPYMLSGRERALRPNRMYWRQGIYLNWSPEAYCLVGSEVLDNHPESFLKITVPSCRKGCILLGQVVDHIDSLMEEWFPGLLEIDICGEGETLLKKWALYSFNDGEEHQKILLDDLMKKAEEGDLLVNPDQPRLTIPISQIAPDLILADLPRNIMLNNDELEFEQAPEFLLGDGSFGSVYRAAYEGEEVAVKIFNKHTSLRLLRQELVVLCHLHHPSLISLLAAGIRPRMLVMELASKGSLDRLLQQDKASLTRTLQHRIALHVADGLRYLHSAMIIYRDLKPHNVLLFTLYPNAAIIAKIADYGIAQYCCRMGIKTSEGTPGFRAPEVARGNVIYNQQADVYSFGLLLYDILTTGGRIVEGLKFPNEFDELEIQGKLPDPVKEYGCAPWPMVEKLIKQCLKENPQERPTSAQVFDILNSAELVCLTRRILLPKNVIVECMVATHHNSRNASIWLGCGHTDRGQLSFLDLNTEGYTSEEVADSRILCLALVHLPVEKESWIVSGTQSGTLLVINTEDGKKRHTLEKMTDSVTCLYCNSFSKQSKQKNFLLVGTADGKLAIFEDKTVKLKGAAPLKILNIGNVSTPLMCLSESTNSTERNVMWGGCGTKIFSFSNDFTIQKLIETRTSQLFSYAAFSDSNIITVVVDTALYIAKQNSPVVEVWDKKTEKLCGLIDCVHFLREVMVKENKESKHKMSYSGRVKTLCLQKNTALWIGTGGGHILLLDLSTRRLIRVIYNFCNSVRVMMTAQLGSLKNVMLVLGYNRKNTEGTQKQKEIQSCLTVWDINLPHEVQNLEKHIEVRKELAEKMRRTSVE
Method Summary: LRRK2 kinase assay (Lantha Screen)
Recorded Conditions: 1 mM ATP (head); a = geometric mean of >=4 determinations, b = single determination; read-out: LRRK2 LANTHA EC50 at 1 mM ATP; Geometric mean of 2-3 determinations unless otherwise indicated
pEC50: −log10 of the molar value.
Quantity Measured: pEC50

For orientation, consider the following solved cases.
Cn1cc(-c2c[nH]c3nccc(-c4ccc(F)c(F)c4)c23)cn1: 7.34
COc1ccc(F)c(F)c1-c1c[nH]c2ncc(C#N)c(C3CC3)c12: 7.00
Fc1c(Cl)cccc1-c1c[nH]c2nccc(N3CCOCC3)c12: 7.39
N#Cc1cccc(-c2c[nH]c3nccc(-c4ccncc4)c23)c1: 8.00

(I) N#Cc1cccc(-c2c[nH]c3nccc(N4CCCC4)c23)c1
(II) COc1ccc(-c2ccnc3[nH]cc(-c4cnn(C)c4)c23)cc1F
**Query** Given the two records I and II , choose the one whose pEC50 value is lower. Please reply using the label of the selected record.
**Result** II
(II: 6.86, I: 7.85)

(I) Fc1cc(Cl)cc(-c2c[nH]c3nccc(N4CCOCC4)c23)c1
(II) Cc1[nH]c2nccc(N3CCOCC3)c2c1-c1cnn(C)c1
**Query** Given the two records I and II , choose the one whose pEC50 value is lower. Please reply using the label of the selected record.
**Result** II
(II: 6.86, I: 7.29)

(A) Cc1cc(F)cc(-c2c[nH]c3nccc(N4CCOCC4)c23)c1
(B) N#CCc1cnc2[nH]cc(-c3cccc(C#N)c3)c2c1N1CCOCC1
(C) C[C@H]1CN(c2ccnc3[nH]cc(-c4cnn(C)c4)c23)CCO1
(D) c1ccc(-c2c[nH]c3nccc(N4CCOCC4)c23)cc1
**Query** # ascending order, key=pEC50 Please respond by ranking the labels in the order requested.
**Result** C, B, D, A
